# experiment-description: In vitro cell viability (MTT), cancer cell lines
# Format: cell-based, human
# assay-setup: human, MDA-MB-231, HCT-116 and U-87-MG cancer cells; 100 μM, cancer cell lines, 72 h; read-out: cells remaining viable
# Protocol: MDA-MB-231 and U-87-MG cell lines were cultured in DMEM medium (Gibco, Grand Island, N.Y.) containing 10% fetal bovine serum (FBS) and 1% penicillin streptomycin at 37° C. in a humidified atmosphere of 5% CO2 in air. […] Following 24 and 72 h of incubation under 5% CO2 at 37° C., the cells were washed with PBS and cell viability was assessed by MTT colorimetric assay. […] The data are expressed as the percentage of viable cells compared to the survival of a control group and were presented as mean±s.e. […]
measure-name: viability at 72 h, 100 µM

Value lookup for viability at 72 h, 100 µM; key = COc1cc2c(Nc3ccc(Br)cc3F)ncnc2cc1OCC1CCN(C)CC1 [ZD-G1, vandetanib, reference compound]
~50%

====

# test-target: VEGFR2 (Homo sapiens)
# Construct: evaluated by saturation and displacement assays using U87 cells; endogenous in cells
# Sequence (P35968 20-1356): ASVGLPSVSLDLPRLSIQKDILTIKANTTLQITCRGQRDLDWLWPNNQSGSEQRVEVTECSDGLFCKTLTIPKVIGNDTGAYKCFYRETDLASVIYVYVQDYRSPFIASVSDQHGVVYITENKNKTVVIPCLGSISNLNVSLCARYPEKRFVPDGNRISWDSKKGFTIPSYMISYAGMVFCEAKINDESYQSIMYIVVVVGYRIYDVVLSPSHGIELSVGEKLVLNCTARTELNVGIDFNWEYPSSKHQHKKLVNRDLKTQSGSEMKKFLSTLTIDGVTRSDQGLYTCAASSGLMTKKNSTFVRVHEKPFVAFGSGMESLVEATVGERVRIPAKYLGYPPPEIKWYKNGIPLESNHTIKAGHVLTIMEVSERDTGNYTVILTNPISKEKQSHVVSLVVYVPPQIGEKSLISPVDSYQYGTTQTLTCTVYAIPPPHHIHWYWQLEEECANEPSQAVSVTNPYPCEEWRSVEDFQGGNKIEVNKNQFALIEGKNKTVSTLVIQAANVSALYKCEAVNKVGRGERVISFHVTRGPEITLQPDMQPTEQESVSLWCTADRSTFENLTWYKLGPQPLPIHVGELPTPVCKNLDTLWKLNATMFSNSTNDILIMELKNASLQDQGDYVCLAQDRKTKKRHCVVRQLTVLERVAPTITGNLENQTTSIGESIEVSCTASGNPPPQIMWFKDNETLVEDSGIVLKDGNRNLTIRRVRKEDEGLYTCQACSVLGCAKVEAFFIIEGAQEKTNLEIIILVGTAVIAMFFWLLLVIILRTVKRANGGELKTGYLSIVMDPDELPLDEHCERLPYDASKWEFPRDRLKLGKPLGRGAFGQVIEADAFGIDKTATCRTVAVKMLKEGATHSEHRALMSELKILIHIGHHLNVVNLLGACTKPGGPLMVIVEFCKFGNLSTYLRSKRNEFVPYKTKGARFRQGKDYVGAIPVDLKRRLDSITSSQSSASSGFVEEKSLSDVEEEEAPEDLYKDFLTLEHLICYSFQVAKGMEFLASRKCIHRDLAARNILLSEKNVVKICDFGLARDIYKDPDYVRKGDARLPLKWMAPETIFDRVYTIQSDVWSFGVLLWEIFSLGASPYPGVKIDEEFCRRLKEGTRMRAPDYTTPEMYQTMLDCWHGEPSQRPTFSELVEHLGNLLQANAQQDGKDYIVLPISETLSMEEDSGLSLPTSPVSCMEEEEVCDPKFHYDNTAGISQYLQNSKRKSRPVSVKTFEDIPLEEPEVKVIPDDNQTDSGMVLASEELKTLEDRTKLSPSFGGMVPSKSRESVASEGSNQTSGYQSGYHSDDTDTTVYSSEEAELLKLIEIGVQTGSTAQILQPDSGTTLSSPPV
# experiment-description: Cell VEGFR2 receptor-binding assay, displacement/competition
# assay-setup: read-out: 50% inhibitory concentration (IC50)
measure-name: pIC50
Please report pIC50 as the negative decimal logarithm of the molar concentration, giving only the number.

Value lookup for pIC50; key = `COc1cc2c(Nc3ccc(Br)cc3F)ncnc2cc1OCC1CCN(C(=O)OCCN(CCOC(=O)NCCN)CCOC(=O)N2CCC(COc3cc4ncnc(Nc5ccc(Br)cc5F)c4cc3OC)CC2)CC1`
10.64
